Please respond with reported phosphorylation enrichment for every item in the list.
Target: Fyn (UniProt P06241)
Sequence (P06241 whole entry, looked up): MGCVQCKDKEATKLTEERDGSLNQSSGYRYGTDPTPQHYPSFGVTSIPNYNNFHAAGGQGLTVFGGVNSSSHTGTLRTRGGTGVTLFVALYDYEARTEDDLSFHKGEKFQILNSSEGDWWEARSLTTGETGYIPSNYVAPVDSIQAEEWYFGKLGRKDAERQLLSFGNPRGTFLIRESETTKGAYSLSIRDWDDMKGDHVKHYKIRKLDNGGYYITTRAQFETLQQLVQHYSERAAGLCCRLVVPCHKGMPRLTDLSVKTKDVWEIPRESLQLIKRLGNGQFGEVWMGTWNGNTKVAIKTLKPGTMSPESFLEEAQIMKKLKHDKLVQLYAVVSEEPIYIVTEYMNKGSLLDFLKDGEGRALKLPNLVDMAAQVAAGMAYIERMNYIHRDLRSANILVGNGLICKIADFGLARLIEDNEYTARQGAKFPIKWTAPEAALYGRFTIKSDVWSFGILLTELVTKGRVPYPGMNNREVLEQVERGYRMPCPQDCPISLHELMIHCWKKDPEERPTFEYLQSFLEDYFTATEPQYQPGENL
Assay: phosphorylation enrichment, bacterial display (enrichment ratio); higher = better substrate or ligand; peptides without Tyr show the background;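 also: 11-residue human phosphosite peptides and single-mutation variants displayed on the E. coli surface, counted by deep sequencing, each peptide's frequency after selection divided by its frequency in the unselected input library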;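 also: frequency after pTyr selection over input frequency; kinase dosed for 20-30% of maximal phosphorylation in three min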
Hey, just send me the number, nothing else.

phosphorylation enrichment measured on KASIMYPSSNC [CXCL11_Y52_N55S] = 0.434

phosphorylation enrichment measured on GYYDLYGGEKF [PTPN11_Y66_D61G] = 7.27

phosphorylation enrichment measured on DKNSSYFADWF [TUBB8_Y340_L345F] = 0.479

phosphorylation enrichment measured on RHSGSYFVTSV [APC_Y2838_L2839F] = 0.598

* * *

Test system: Fer (mouse)
Test: phosphorylation enrichment, bacterial display (enrichment ratio); higher = better substrate or ligand; peptides without Tyr show the background
propertyMeasured: phosphorylation enrichment
Hey, just send me the number, nothing else.

phosphorylation enrichment measured on EAMPDYKKQLR [SPATA18_Y229_S227P] = 0.474

phosphorylation enrichment measured on YRKNTYNVKST [SYNE2_Y575_I574T] = 0.327

phosphorylation enrichment measured on ELTAKYLNFFQ [P3H4_Y181_YF] = 0.517

phosphorylation enrichment measured on ADGLEYSRTGL [MMUT_Y287] = 0.514

phosphorylation enrichment measured on DAAEDYAEGVC [DHODH_Y194_R199C] = 0.765

phosphorylation enrichment measured on QLRPGYFPIPV [BAG3_Y93_I94F] = 0.42

* * *

Test system: AncSZ
Test: phosphorylation enrichment, bacterial display (enrichment ratio); higher = better substrate or ligand; peptides without Tyr show the background
Please respond with reported phosphorylation enrichment for every item in the list.
Hey, just send me the number, nothing else.

phosphorylation enrichment measured on PFTRNYFVQAV [CYBA_Y87_R90Q_YF] = 0.963

phosphorylation enrichment measured on GFSRHYEDGFP [CTNND1_Y217_YF] = 0.619

phosphorylation enrichment measured on NVQIVYKPVDL [MAPT_Y627_S622N] = 0.955

phosphorylation enrichment measured on IKKLIYVHLVI [JAGN1_Y42] = 1.02

phosphorylation enrichment measured on SEELHYFVQNH [UQCRC2_Y207] = 1.45

phosphorylation enrichment measured on KGELRYMHSPV [ABCD1_Y281_R285P] = 0.481

phosphorylation enrichment measured on EEGNPYYSSAR [MCCC2_Y520] = 1.09

phosphorylation enrichment measured on NKYVAYIESQG [KDM4B_Y34] = 0.893

phosphorylation enrichment measured on EEGESDVCSSD [DCX_Y125_Y125D] = 1.04

phosphorylation enrichment measured on MKVPLYETPAG [PGM5_Y358_V357L] = 1.64

phosphorylation enrichment measured on AKAFIYASHIV [ZNF573_Y229_G224A] = 0.962

phosphorylation enrichment measured on YIRKDYEACKA [BBS4_Y48] = 0.553

phosphorylation enrichment measured on CTTIHYNFMGN [TP53_Y234_C238G_YF] = 0.926

phosphorylation enrichment measured on KVKPIYFHTQG [AR_Y916] = 0.645

phosphorylation enrichment measured on PGAGHYEDTIL [ALK_Y1604] = 1.15

phosphorylation enrichment measured on AKFPSYEKNKK [FOXL2_Y91_F90S] = 0.624

phosphorylation enrichment measured on LKMLVYMDMSK [LRRC7_Y234_L235M] = 1.45

phosphorylation enrichment measured on TFGVAYRAKDK [CDK11B_Y453_V452A_YF] = 1.08

phosphorylation enrichment measured on SHNELYYEAAE [VANGL1_Y344_E347A] = 1.6

phosphorylation enrichment measured on VNYQPYRKHKY [TEX37_Y28_D24N] = 0.578

phosphorylation enrichment measured on WVFNHYRWIIW [BRCA2_Y2624_YF] = 1.29

phosphorylation enrichment measured on FDGKEYDPVEA [MAPRE2_Y167_YF] = 1.5

phosphorylation enrichment measured on "TEVIWYKGDEE" = 1.72

phosphorylation enrichment measured on SRNSKYNAEST [PSEN1_Y315_K311R] = 0.512

phosphorylation enrichment measured on KAALSYVSEIG [BPIFB2_Y36] = 0.555

phosphorylation enrichment measured on TNFSLYLRSLE [MTM1_Y71_R69S_YF] = 1.2

phosphorylation enrichment measured on GVRLFYRVRES [RB1_Y454_M457R_YF] = 1.25

phosphorylation enrichment measured on NLAAQYTTVGR [SGSH_Y240_D235N] = 0.444

phosphorylation enrichment measured on KHCEDYVCSFN [DSC1_Y846_YF] = 1.15

phosphorylation enrichment measured on KIVQDYLEKFY [MMP8_Y36_T32I] = 0.885

phosphorylation enrichment measured on GSIQQYTFKQE [PRG4_Y1271_I1272T_YF] = 0.703

phosphorylation enrichment measured on DQIDTYELSGG [DNM1_Y354] = 1.38

phosphorylation enrichment measured on EVVGRYSVHFA [MLH1_Y183_N187Y_YF] = 0.92

phosphorylation enrichment measured on RLRKYHLGKYL [KLB_Y906_Y906H] = 0.726

phosphorylation enrichment measured on MSRDVYSTDFF [NTRK2_Y702_YF] = 0.691

phosphorylation enrichment measured on GRVLGYGAFRK [FLT4_Y853_G857R] = 0.634

phosphorylation enrichment measured on HNGVSYYINLC [IGF2R_Y2024] = 1.43

phosphorylation enrichment measured on FSTDCYRVGGH [NTRK2_Y707_Y706C_YF] = 1.08

phosphorylation enrichment measured on ICGVSYDEYRY [CFTR_Y512_F508C] = 1.46

phosphorylation enrichment measured on IHFAIYLLKFS [ARMC9_Y107_YF] = 0.891

phosphorylation enrichment measured on INNKMYDPKMN [ENPP1_Y280_D276N] = 0.535

phosphorylation enrichment measured on HKNNNYEPSLF [BRCA2_Y57_N60S] = 1.13

phosphorylation enrichment measured on ADEEFYEIIAA [FEStide_F_2014] = 2.54

phosphorylation enrichment measured on RRGMPYGGHGD [TGM1_Y312_R315H] = 0.572

phosphorylation enrichment measured on LKGQVDILGRE [ASS1_Y359_Y359D] = 0.803

* * *

Target: FGFR3 (UniProt P22607)
Sequence (P22607 whole entry, looked up): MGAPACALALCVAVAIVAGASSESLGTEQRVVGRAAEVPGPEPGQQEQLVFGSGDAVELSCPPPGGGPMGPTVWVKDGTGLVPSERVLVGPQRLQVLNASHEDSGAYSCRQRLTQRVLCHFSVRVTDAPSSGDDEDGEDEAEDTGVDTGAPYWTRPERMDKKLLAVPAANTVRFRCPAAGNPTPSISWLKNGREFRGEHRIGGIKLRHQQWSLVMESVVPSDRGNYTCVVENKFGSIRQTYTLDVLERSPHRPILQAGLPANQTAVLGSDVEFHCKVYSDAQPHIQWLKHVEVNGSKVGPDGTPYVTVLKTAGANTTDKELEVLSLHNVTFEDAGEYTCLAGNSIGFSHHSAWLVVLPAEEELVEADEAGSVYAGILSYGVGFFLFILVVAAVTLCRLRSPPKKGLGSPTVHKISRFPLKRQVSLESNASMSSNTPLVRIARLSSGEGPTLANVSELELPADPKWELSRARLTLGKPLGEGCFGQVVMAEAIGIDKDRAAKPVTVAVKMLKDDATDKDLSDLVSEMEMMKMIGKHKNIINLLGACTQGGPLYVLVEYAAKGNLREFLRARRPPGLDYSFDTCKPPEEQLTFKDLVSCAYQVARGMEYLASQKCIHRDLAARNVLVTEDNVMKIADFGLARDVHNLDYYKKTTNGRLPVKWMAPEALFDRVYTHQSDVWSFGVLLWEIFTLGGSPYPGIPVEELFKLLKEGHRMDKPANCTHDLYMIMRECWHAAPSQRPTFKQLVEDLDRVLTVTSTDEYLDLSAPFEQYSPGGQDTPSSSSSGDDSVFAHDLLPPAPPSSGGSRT
Assay: phosphorylation enrichment, bacterial display (enrichment ratio); higher = better substrate or ligand; peptides without Tyr show the background
propertyMeasured: phosphorylation enrichment

Field phosphorylation enrichment (system: FGFR3 (UniProt P22607)) for entry GHLYAYDWISI [BEST1_Y227] = 6.48

Field phosphorylation enrichment (system: FGFR3 (UniProt P22607)) for entry HPAGNYSLSSV [ARFGAP3_Y473_Q468H] = 0.458

Field phosphorylation enrichment (system: FGFR3 (UniProt P22607)) for entry TTPYNYSYIFK [RAB14_Y8_A4T] = 0.893

Field phosphorylation enrichment (system: FGFR3 (UniProt P22607)) for entry EVEFEYPFRLH [SYP_Y73] = 0.724

Field phosphorylation enrichment (system: FGFR3 (UniProt P22607)) for entry ALVFLSFCIIF [SIGLEC12_Y494_Y494S] = 0.603

Field phosphorylation enrichment (system: FGFR3 (UniProt P22607)) for entry KASGKYFAMKI [AKT3_Y173_YF] = 0.421

Field phosphorylation enrichment (system: FGFR3 (UniProt P22607)) for entry QLFGPYLRIHA [BSCL2_Y213_A212P_YF] = 1.03

Field phosphorylation enrichment (system: FGFR3 (UniProt P22607)) for entry AARVSYRLASG [DCHS1_Y1582] = 0.392

Field phosphorylation enrichment (system: FGFR3 (UniProt P22607)) for entry FDGKEYDPVEA [MAPRE2_Y167_YF] = 0.801

Field phosphorylation enrichment (system: FGFR3 (UniProt P22607)) for entry PGAGHYEDTIL [ALK_Y1604] = 0.881

Field phosphorylation enrichment (system: FGFR3 (UniProt P22607)) for entry IITDFYVDMKF [MPP4_Y567_V562I_YF] = 1.39

Field phosphorylation enrichment (system: FGFR3 (UniProt P22607)) for entry MAFDRYVAICA [OR52J3_Y125_V128I] = 0.708

Field phosphorylation enrichment (system: FGFR3 (UniProt P22607)) for entry MKVPLYETPAG [PGM5_Y358_V357L] = 0.632

Field phosphorylation enrichment (system: FGFR3 (UniProt P22607)) for entry MFVKSYTIHFS [F5_Y2153_YF] = 0.736

Field phosphorylation enrichment (system: FGFR3 (UniProt P22607)) for entry SFCFRYRCAAR [SUMF1_Y344_YF] = 0.54

Field phosphorylation enrichment (system: FGFR3 (UniProt P22607)) for entry VPLLEYFRDIF [CDAN1_Y712_YF] = 0.943

Field phosphorylation enrichment (system: FGFR3 (UniProt P22607)) for entry VNFDFYTVNLG [GFPT1_Y367_D366Y_YF] = 0.75

Field phosphorylation enrichment (system: FGFR3 (UniProt P22607)) for entry MFDKEYFSVHN [MET_Y1234_YF] = 1.31
